These data points were gathered from paper PMC5540273.

# System: PDGFRA
# Setup Conditions: concentration: 1 μM, replicates: in singlicate; n = 1;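 also: KINOMEscan kinase panel screen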
%Inh by entry:
Return type: number; implicit unit %.

Example compounds with recorded %Inh:
O=C(Nc1cccc(-c2nn3ccccc3c2-c2ccnc(Nc3cccc(C(F)(F)F)c3)n2)c1)c1c(F)cccc1F | 10
Nc1ncc(-c2cccnc2)c2scc(-c3ccc4c(c3)CCN4C(=O)Cc3ccccc3)c12 | 53
CN(C)Cc1ccc(-c2ccc3c(Nc4ccc(Oc5ccccn5)cc4)ccnc3c2)o1 | 82
Cc1occc1-c1ncc(OC[C@@H](N)Cc2c[nH]c3ccccc23)cc1-c1ccc2[nH]nc(C)c2c1.O=C(O)C(F)(F)F | 0
Cl.Cl.NCC(C(=O)Nc1cc(Br)c(-c2ccnc3[nH]ccc23)s1)c1ccccc1 (stereo not shown) | 0

Exercise: Entry `COc1ccc(-c2coc3ccc(-c4nnc(SCc5ccc(OC)c(C(F)(F)F)c5)o4)cc23)cc1` : reported %Inh = ?
Key: 23

Exercise: Entry `CN1CCN(Cc2cccc(-c3ccc4c(Nc5ccc(Oc6ccccc6)cc5)ccnc4c3)c2)CC1` : reported %Inh = ?
Key: 94.3

Exercise: Entry `CN1CCN(CCCNc2nccc(-c3c(-c4ccc(F)cc4)nn4cc(C(F)(F)F)ccc34)n2)CC1` : reported %Inh = ?
Key: 0

----------
# Test system: AXL
# Setup Conditions: concentration: 1 μM, replicates: in singlicate; n = 1
Decide by %Inh: equal to or exceeding 40% means met, less means not met.

Nc1ncc(-c2ccc3nccc(-c4ccncc4)c3c2)cc1S(=O)(=O)N1CCOCC1 [GSK1627798] | not met
O=c1[nH]cc(-c2ccc(N3CCOCC3)cc2)c2sc(-c3cn[nH]c3)cc12 [GSK2276055] | not met
Cc1cccc(NC(=O)Nc2ccc(Oc3ncnc4ccn(C)c34)cc2)c1 | met
O=C(Nc1ccccc1F)NC1CCN(c2ccnc(Nc3ccc(F)cc3)n2)CC1 [GSK1379800] | not met
CNC(=O)c1ccccc1Nc1nc(Nc2ccc(N3CCOCC3)cc2)ncc1Cl.Cl [GSK1576028] | met
CCS(=O)(=O)c1ccc(OC)c(Nc2nccc(-c3c(-c4cccc(NC(=O)c5c(F)cccc5F)c4)nn4ncccc34)n2)c1 [GSK326180] | not met
c1ccc(Oc2ccc(Nc3ccnc4cc(-c5ccc(CNCCN6CCOCC6)o5)ccc34)cc2)nc1 [GW567145] | not met
Cl.c1ccc(-c2ccc3c(Nc4ccc5[nH]ncc5c4)ccnc3c2)nc1 [GW440137] | not met

Exercise: Record Cc1ccc(S(=O)(=O)Nc2ccc(Nc3nccc(Nc4cccc5[nH]ncc45)n3)cc2)cc1 [GSK581271] ; criterion: %Inh no lower than 40%. Met?
Key: not met

Exercise: Record O=C(Nc1n[nH]c2nc(-c3ccc(O)cc3)ccc12)C1CC1 [SB-710363] ; criterion: %Inh no lower than 40%. Met?
Key: not met

Exercise: Record Cc1ccc(C(=O)Nc2ccc(Nc3ccnc4cc(-c5nccs5)ccc34)cc2O)cc1.Cl [GW494702] ; criterion: %Inh no lower than 40%. Met?
Key: not met

Exercise: Record COC(=O)Nc1nc2cc(Oc3ccc(NC(=O)Nc4cc(C(F)(F)F)ccc4F)cn3)ccc2[nH]1.Cl.Cl [GW681170] ; criterion: %Inh no lower than 40%. Met?
Key: met

Exercise: Record CC(=O)N1CCN(c2ccc(Nc3nccc(-c4sc(C(C)C)nc4-c4cccc(NS(=O)(=O)c5cccc(Cl)c5)c4)n3)cn2)CC1 [GSK1660437] ; criterion: %Inh no lower than 40%. Met?
Key: met

Exercise: Record `O=C(Nc1cccc(Oc2ccc3nc(NC(=O)C4CC4)cn3n2)c1)c1ccccc1C(F)(F)F` ; criterion: %Inh no lower than 40%. Met?
Key: met

Exercise: Record COc1cccc(NC(=O)NC2CCN(c3ccnc(Nc4cc(OC)c(OC)c(OC)c4)n3)C2)c1 (centres unmarked) [GSK1379763] ; criterion: %Inh no lower than 40%. Met?
Key: not met

Exercise: Record Cn1cc(-c2ccc3c(c2)CCN3C(=O)Cc2cccc(Cl)c2)c2c(N)ncnc21 [GSK2606590] ; criterion: %Inh no lower than 40%. Met?
Key: met

Exercise: Record Nc1ncnc2c1nc(-c1ccccc1)n2-c1ccccc1 [SKF-97293] ; criterion: %Inh no lower than 40%. Met?
Key: not met
